- experimental target: recombinant human CD3ε/δ heterodimer (human) (UniProt P07766)
- Sequence (P07766 23-126, stated change not applied, chain 1 of 2): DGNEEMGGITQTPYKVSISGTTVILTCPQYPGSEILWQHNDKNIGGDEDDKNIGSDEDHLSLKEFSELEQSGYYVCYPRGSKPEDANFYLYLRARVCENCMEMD
- Sequence (P04234 22-105, stated change not applied, chain 2 of 2, further chain): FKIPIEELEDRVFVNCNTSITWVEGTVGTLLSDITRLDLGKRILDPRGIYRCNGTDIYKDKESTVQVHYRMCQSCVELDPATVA
- experiment notes: ELISA, coated CD3ε/δ
test readout: Absorbance (450 nm)
Reply with the value as a number alone.

[in] I'd like to know its Absorbance (450 nm). The binder in question is F08 (antibody, human IgG1, lambda, L234A L235A, V domains shown) VH: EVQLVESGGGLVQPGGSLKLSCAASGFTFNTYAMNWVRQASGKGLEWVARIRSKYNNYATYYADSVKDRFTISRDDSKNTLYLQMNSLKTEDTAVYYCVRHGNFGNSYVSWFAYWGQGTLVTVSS VL: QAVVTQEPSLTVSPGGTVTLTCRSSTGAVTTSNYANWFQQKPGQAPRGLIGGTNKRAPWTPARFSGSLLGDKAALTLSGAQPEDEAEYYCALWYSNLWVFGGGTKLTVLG
[out] 0.134

[in] # Absorbance (450 nm) lookup, item G02 (antibody, human IgG1, lambda, L234A L235A, V domains shown) VH: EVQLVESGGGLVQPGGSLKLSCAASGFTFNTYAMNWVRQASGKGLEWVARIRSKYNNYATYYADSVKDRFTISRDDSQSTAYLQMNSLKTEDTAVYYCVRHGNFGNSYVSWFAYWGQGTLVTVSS VL: QAVVTQEPSLTVSPGGTVTLTCRSSTGAVTTSNYANWFQQKPGQAPRTLIYGTNKRAPWTPARFSGSLLGDKAALTLSGAQPEDEAEYYCALWYSNLWVFGGGTKLTVLG
[out] 0.146
